Tested on: corn
Assay: Test B pre-/postemergence herbicide test
Format: in vivo, Zea mays
Details: 125 g ai/ha; 0 = no effect, 100 = complete control; preemergence
measure_name: Corn plant response rating (0 to 100 scale)
Answer with a number only.

# annotated cases, reported Corn plant response rating (0 to 100 scale) shown
{"columns": ["compound_structure_string", "numeric_value"],
 "data": [
  ["CCn1nc(C(C)(C)C)cc1C(=O)Nc1cncc(C(=O)N(C)C)n1", 0],
  ["CC(=O)c1cccc(NC(=O)c2cn(C(C)C)nc2C)c1", 0],
  ["CCc1cn(C(C)(C)C)nc1C(=O)Nc1cc(C(=O)N(C)CC)ccn1", 0],
  ["CCc1nn(C(C)(C)C)cc1C(=O)Nc1cccc(C(C)=NO)c1", 10]
]}

Continue with the next compound.
According to the records, this compound "CCN(C)C(=O)c1cc(NC(=O)c2cc(C(C)(C)C)nn2CC)c(F)cc1F" displays Corn plant response rating (0 to 100 scale) of 0
